Tested on: COL17A1
assayRemarks: COL17A1 expression in human epidermal keratinocytes by high content imaging (HCS)
Format: cell-based
protocolConditions: Table 3; anticancer drugs and molecularly targeted drugs
Description: The present inventors further searched for substances that induce or maintain the expression of COL17A1. Human epidermal keratinocytes were seeded in 384-well plates, cultured for 48 hours after addition of reagents, immunostained with an anti-COL17A1 antibody and a fluorescently labeled secondary antibody, and then the fluorescence intensity per cell was detected using a high content imaging system (HCS: High Content Screening). […]
For each of the compounds below, state its COL17A1 expression level (control ratio).

Exam item: Find the measured COL17A1 expression level (control ratio): item O=NN(CCCl)C(=O)NCCCl [Carmustine] , target or system COL17A1.
Marked response: 0.94

Exam item: Find the measured COL17A1 expression level (control ratio): item Nc1ccn([C@@H]2O[C@H](CO)[C@@H](O)C2(F)F)c(=O)n1 [Gemcitabine] , target or system COL17A1.
Marked response: 0.96

Exam item: Find the measured COL17A1 expression level (control ratio): item N.N.[Cl][Pt][Cl] [Cisplatin] , target or system COL17A1.
Marked response: 0.97

Exam item: Find the measured COL17A1 expression level (control ratio): item CN(C)/N=N/c1[nH]cnc1C(N)=O [Dacarbazine] , target or system COL17A1.
Marked response: 0.94

Exam item: Find the measured COL17A1 expression level (control ratio): item Cn1nnc2c(C(N)=O)ncn2c1=O [Temozolomide] , target or system COL17A1.
Marked response: 0.98

Exam item: Find the measured COL17A1 expression level (control ratio): item Nc1nc(F)nc2c1ncn2[C@@H]1O[C@H](COP(=O)(O)O)[C@@H](O)[C@@H]1O [Fludarabine phosphate] , target or system COL17A1.
Marked response: 0.90

Exam item: Find the measured COL17A1 expression level (control ratio): item CC(=O)O.O=c1[nH]cc(F)c(=O)[nH]1 [Fluorouracil acetate] , target or system COL17A1.
Marked response: 0.88

Exam item: Find the measured COL17A1 expression level (control ratio): item NC(=O)NO [Hydroxyurea] , target or system COL17A1.
Marked response: 0.92

Exam item: Find the measured COL17A1 expression level (control ratio): item O=P1(NCCCl)OCCCN1CCCl (stereo not shown) [Ifosfamide] , target or system COL17A1.
Marked response: 0.84

Exam item: Find the measured COL17A1 expression level (control ratio): item S=c1nc[nH]c2nc[nH]c12 [Mercaptopurine] , target or system COL17A1.
Marked response: 0.83

Exam item: Find the measured COL17A1 expression level (control ratio): item Clc1ccc(C(c2ccccc2Cl)C(Cl)Cl)cc1 (stereo not shown) [Mitotane] , target or system COL17A1.
Marked response: 0.98

Exam item: Find the measured COL17A1 expression level (control ratio): item COc1cccc(-c2cc(=O)c3ccccc3o2)c1N [PD98059] , target or system COL17A1.
Marked response: 0.84

Exam item: Find the measured COL17A1 expression level (control ratio): item CCC(=O)O[C@H]1CC[C@H]2[C@@H]3CCC4=CC(=O)CC[C@]4(C)[C@H]3CC[C@]12C [Testosterone propionate] , target or system COL17A1.
Marked response: 0.84

###

System: COL17A1
assayRemarks: COL17A1 expression in human epidermal keratinocytes by high content imaging (HCS)
Assay type: cell-based
protocolConditions: Table 3; anticancer drugs and molecularly targeted drugs
Where a name gives a salt, the structure may show the parent alone.
assayReadout: COL17A1 expression level (control ratio)
Kindly provide the number alone.

Exam item: Name the reported COL17A1 expression level (control ratio) value associated with the compound COc1ccc(C[C@H](N)C(=O)N[C@H]2[C@@H](O)[C@H](n3cnc4c(N(C)C)ncnc43)O[C@@H]2CO)cc1 [Puromycin hydrochloride]
Marked response: 0.85

Exam item: Name the reported COL17A1 expression level (control ratio) value associated with the compound CC/C(=C(\c1ccccc1)c1ccc(OCCN(C)C)cc1)c1ccccc1 [Tamoxifen citrate]
Marked response: 0.78

Exam item: Name the reported COL17A1 expression level (control ratio) value associated with the compound O=c1[nH]c(=O)n(C2CCCO2)cc1F (stereo not shown) [Tegafur]
Marked response: 0.90

Exam item: Name the reported COL17A1 expression level (control ratio) value associated with the compound C=C1C[C@@H]2[C@H](CC[C@]3(C)C(=O)CC[C@@H]23)[C@@]2(C)C=CC(=O)C=C12 [Exemestane]
Marked response: 0.93
